Data provenance is ChEMBL document CHEMBL5331139.

Record form. Attribute: Ki. Fill in for each entry.

Query: Give Ki (Carbonic anhydrase 5A, mitochondrial (Homo sapiens, UniProt P35218)) of the following compound: Nc1cc([Se][C@@H]2O[C@H](CO)[C@@H](O)[C@H](O)[C@H]2O)ccc1S(N)(=O)=O
Result: 2.3 µM

Query: Give Ki (Carbonic anhydrase 5A, mitochondrial (Homo sapiens, UniProt P35218)) of the following compound: NS(=O)(=O)c1ccc([Se][C@@H]2O[C@H](CO)[C@H](O)[C@H](O)[C@H]2O)cc1
Result: 0.427 µM

Query: Give Ki (Carbonic anhydrase 5A, mitochondrial (Homo sapiens, UniProt P35218)) of the following compound: CC(=O)OC[C@H]1O[C@@H]([Se]c2ccc(S(N)(=O)=O)cc2)[C@H](OC(C)=O)[C@@H](OC(C)=O)[C@@H]1OC(C)=O
Result: 0.596 µM

Query: Give Ki (Carbonic anhydrase 5A, mitochondrial (Homo sapiens, UniProt P35218)) of the following compound: NS(=O)(=O)c1ccc(C(=O)Nc2ccc([Se][C@@H]3O[C@H](CO)[C@@H](O)[C@H](O)[C@H]3O)cc2)cc1
Result: 0.0451 µM

Query: Give Ki (Carbonic anhydrase 5A, mitochondrial (Homo sapiens, UniProt P35218)) of the following compound: CC(=O)OC[C@H]1O[C@@H]([Se]c2ccc(S(N)(=O)=O)c(N)c2)[C@H](OC(C)=O)[C@@H](OC(C)=O)[C@@H]1OC(C)=O
Result: 2.54 µM

Query: Give Ki (Carbonic anhydrase 5A, mitochondrial (Homo sapiens, UniProt P35218)) of the following compound: CC(=O)OC[C@H]1O[C@@H]([Se]c2ccc(S(N)(=O)=O)c(N)c2)[C@H](OC(C)=O)[C@@H](OC(C)=O)[C@H]1OC(C)=O
Result: 6.57 µM

Query: Give Ki (Carbonic anhydrase 5A, mitochondrial (Homo sapiens, UniProt P35218)) of the following compound: NS(=O)(=O)c1ccc(NC(=S)Nc2ccc([Se][C@@H]3O[C@H](CO)C(O)[C@H](O)[C@H]3O)cc2)cc1 (single isomer, unassigned; 16b)
Result: 0.358 µM

Query: Give Ki (Carbonic anhydrase 5A, mitochondrial (Homo sapiens, UniProt P35218)) of the following compound: NS(=O)(=O)c1ccc(C(=O)Nc2ccc([Se][C@@H]3O[C@H](CO)[C@H](O)[C@H](O)[C@H]3O)cc2)cc1
Result: 0.12 µM

Query: Give Ki (Carbonic anhydrase 5A, mitochondrial (Homo sapiens, UniProt P35218)) of the following compound: NS(=O)(=O)c1cc(C(=O)Nc2ccc([Se][C@@H]3O[C@H](CO)[C@H](O)[C@H](O)[C@H]3O)cc2)ccc1Cl
Result: 0.215 µM

Query: Give Ki (Carbonic anhydrase 5A, mitochondrial (Homo sapiens, UniProt P35218)) of the following compound: CC(=O)OC[C@H]1O[C@@H]([Se]c2ccc(NC(=S)Nc3ccc(S(N)(=O)=O)cc3)cc2)[C@H](OC(C)=O)[C@@H](OC(C)=O)[C@@H]1OC(C)=O
Result: 0.255 µM

Query: Give Ki (Carbonic anhydrase 5A, mitochondrial (Homo sapiens, UniProt P35218)) of the following compound: NS(=O)(=O)c1ccc(NC(=S)Nc2ccc([Se][C@@H]3O[C@H](CO)C(O)[C@H](O)[C@H]3O)cc2)cc1 (single isomer, unassigned; 16a)
Result: 0.0705 µM

Query: Give Ki (Carbonic anhydrase 5A, mitochondrial (Homo sapiens, UniProt P35218)) of the following compound: NS(=O)(=O)c1ccc([Se][C@@H]2O[C@H](CO)[C@@H](O)[C@H](O)[C@H]2O)cc1
Result: 0.325 µM

Query: Give Ki (Carbonic anhydrase 5A, mitochondrial (Homo sapiens, UniProt P35218)) of the following compound: CC(=O)O[C@@H]1[C@@H](OC(C)=O)[C@H]([Se]c2ccc(S(N)(=O)=O)cc2)O[C@H](CO)[C@H]1OC(C)=O
Result: 0.736 µM

Query: Give Ki (Carbonic anhydrase 5A, mitochondrial (Homo sapiens, UniProt P35218)) of the following compound: CC(=O)O[C@H]1[C@@H](OC(C)=O)[C@@H](CO)O[C@@H]([Se]c2ccc(S(N)(=O)=O)cc2)[C@@H]1OC(C)=O
Result: 0.0968 µM

Query: Give Ki (Carbonic anhydrase 5A, mitochondrial (Homo sapiens, UniProt P35218)) of the following compound: CC(=O)OC[C@H]1O[C@@H]([Se]c2ccc(NC(=O)c3ccc(S(N)(=O)=O)cc3)cc2)[C@H](OC(C)=O)[C@@H](OC(C)=O)[C@H]1OC(C)=O
Result: 0.0574 µM
